FYI, the data here is from the nanobody polyreactivity screen of Harvey et al. (2022).

Experiment: yeast display, Sf9 membrane polyspecificity reagent, FACS + sequencing; frameworks hold sequencing errors
measured parameter: polyreactivity (PSR sort gate)

Known polyreactivity (PSR sort gate) results, listed for orientation:
QVQLVESGGGLVQAGGSLRLSCAASGSIFKSYAMGLYRQAPGKEREFVASITKSGGTTYYADSVKGRFTISRDNAKNTVYLQMNSLKPEDTAVYYCAADWYRSSWTYNYWGQGTQVTVSS
low polyreactivity
QVQLVESGGGLVQAGGSLRSSCAASGSLFTSNTMGWHRQAPGKERELVAAITSSGGSMFYADSVKGRFTISRDNAKNTVYLQMNSLKPEDNAVYYCAADTIGYHDWYDYWGQGTQVTVSS
low polyreactivity
QVQLVESGGGLVQAGGSLRLSCAASGRIFVSNAMGWYRQAPGKERELVAGINSGDRTYYADSVKGRFTISRDNAKNTVYLQMNSLNPEDTAVYYFADSSRRGTGLRYYWGQGTQVTVSS
high polyreactivity
QVQLVESGGGLVQAGGSLRLSCAASGITFLYYAMGWYRQAPGKERELVAAISGGGASTYYADSVKGRFTISRDNAKNTVYLQKNSLKPEDTAVYYCAAGYRDFFRARFGYWGQGTQVTVSS
high polyreactivity

input: Suppose we examine the sequence QVQLVESGGGLVQAGGSLRLSCAASGRTFSRYAMGWYRQAPGKERELVAAISNSGASTYYADSVKGRFTISRDNAKNTVYLQMNSLKPEDTAVYYCAAERYRLSYQYQEYYYWGQGTQVTVSS ; what polyreactivity (PSR sort gate) value has been reported?
output: high polyreactivity
